Data provenance: ChEMBL document CHEMBL3098016

Test system: K562
test.details: Antiproliferative activity against human K562 cells after 48 hrs by MTT assay
details: K562, 48 h
# IC50 values compiled below
test.readout: IC50 (nM)

                                chem_smiles  test_readout  result_unit  recorded_value
0  CNC(=O)c1cc(Oc2ccc(NC(=O)Nc3ccc(Cl)c(C(F)(F)F)c3)cc2)ccn1          IC50           nM             860
1  COc1cc(-c2cc(NC(=O)Nc3ccc(OCCCN4CCOCC4)cc3)cc(OC)c2OC)ccc1C(C)=O          IC50           nM            2230

* * *

test.details: Antiproliferative activity against human SGC7901 cells after 48 hrs by MTT assay
details: SGC-7901, 48 h
test.readout: IC50 (µM)

                                chem_smiles  test_readout  recorded_value
0  CNC(=O)c1cc(Oc2ccc(NC(=O)Nc3ccc(Cl)c(C(F)(F)F)c3)cc2)ccn1          IC50             101
1  COc1cc(-c2cc(NC(=O)Nc3ccc(OCCCN4CCOCC4)cc3)cc(OC)c2OC)ccc1C(C)=O          IC50            80.9
